# Tested on: WPMY1-GM130-SQSTM1
# protocol_description: phenotypically active (imaging signature differs from DMSO and reproducible) at any of 0.3-9 uM (binary (1 = active, 0 = inactive)); higher = active
# recorded_conditions: treatment time: 24 h
Where a name gives a salt, the structure may show the parent alone.
Returns: one label drawn from 1 (active), -1 (inactive)

Please review the following examples before continuing.
>  <molecule>
O=C(O)Cc1cccc(OCCCN(Cc2cccc(C(F)(F)F)c2Cl)CC(c2ccccc2)c2ccccc2)c1 [GW 3965 hydrochloride]

>  <category>
-1

$$$$
>  <molecule>
Cc1cc(C(C)(C)C)c(O)c(C)c1CC1=NCCN1

>  <category>
1

$$$$
>  <molecule>
CC(C)c1ccc(-c2cc(=O)c3ccccc3o2)cc1

>  <category>
1

$$$$
>  <molecule>
C1CCN2C[C@@H]3C[C@@H](CN4CCCC[C@@H]34)[C@H]2C1 [Sparteine (-)]

>  <category>
-1

$$$$
>  <molecule>
CCC1(C)OC(=O)N(C)C1=O (centres undefined)

>  <category>
-1

$$$$
>  <molecule>
CN(C)CCOC(c1ccc(Cl)cc1)c1ccccn1 (centres undefined)

>  <category>
-1

$$$$
>  <molecule>
COc1ccc(-c2cc3c(C)nc(N)nc3n([C@H]3CC[C@H](OCCO)CC3)c2=O)cn1

>  <category>
1

$$$$
>  <molecule>
CCCC1(CCC)CCC2(CCN(CCCN(CC)CC)C2)CC1 [Atiprimod dihydrochloride]

>  <category>
1

$$$$

Now examine the next entry.
Fill in: this test's call for O=C(O)CCNC(=O)c1ccc(/N=N/c2ccc(O)c(C(=O)O)c2)cc1 [balsalazide] is ___
-1

----------
# System: HepG2-ACTB-RAB5A
# protocol_description: phenotypically active (imaging signature differs from DMSO and reproducible) at any of 0.3-9 uM (binary (1 = active, 0 = inactive)); higher = active
# recorded_conditions: treatment time: 24 h
Counter-ions that a name gives are not always drawn.
Returns: one label drawn from active, inactive

Please review the following examples before continuing.
>  <compound>
CC(C)[C@H]1CC[C@H](C(=O)N[C@H](Cc2ccccc2)C(=O)O)CC1 [nateglinide]

>  <category>
inactive

$$$$
>  <compound>
Cn1c(=O)c2nc[nH]c2n(C)c1=O [theophylline]

>  <category>
inactive

$$$$
>  <compound>
O=C(NCc1cccc(O)c1)Nc1nc(-c2ccncc2)cs1 [RKI 1447 dihydrochloride]

>  <category>
active

$$$$
>  <compound>
CC(C)[N@+]1(C)[C@@H]2CC[C@H]1C[C@@H](OC(=O)C(CO)c1ccccc1)C2 (stereo not given in full) [ipratropium]

>  <category>
inactive

$$$$
>  <compound>
CN(N=O)C(=O)N[C@@H](C=O)[C@@H](O)[C@H](O)[C@H](O)CO.CN(N=O)C(=O)N[C@H]1C(O)O[C@H](CO)[C@@H](O)[C@@H]1O [streptozotocin]

>  <category>
inactive

$$$$

Fill in: this test's call for COc1ccc(S(=O)(=O)ON=C2C=C(C)C(=O)C(C)=C2)cc1 is ___
inactive

Another compound to look at: CCN(CC)c1ccc(/C=N/NC(=O)c2ccncc2)c(O)c1
active

Another compound to look at: O=c1[nH]cnc2ccccc12
inactive

Another compound to look at: COc1ccc(S(=O)(=O)N(CCO)c2ccccc2CN(C)C/C=C/c2ccc(Cl)cc2)cc1
active

Another compound to look at: CCC1(c2ccccc2)NC(=O)N(C)C1=O (stereo not given) [Mephenytoin]
inactive

Another compound to look at: Nc1ccc(O)c(C(=O)O)c1 [mesalazine]
inactive

Another compound to look at: O=c1cc(-c2ccccc2)oc2c(O)c(O)ccc12 [7,8-Dihydroxyflavone]
active

Another compound to look at: Cc1nc(NC(=O)N2CCC[C@H]2C(N)=O)sc1-c1ccnc(C(C)(C)C(F)(F)F)c1 [alpelisib]
active

Another compound to look at: CC(C)n1nc(-c2cc3cc(O)ccc3[nH]2)c2c(N)ncnc21
active

Another compound to look at: CNCC(O)c1ccc(OC(=O)C(C)(C)C)c(OC(=O)C(C)(C)C)c1 (stereo not given) [dipivefrine]
inactive

Another compound to look at: COc1ccccc1C(=O)Nc1cc2c(cc1N1CCCC1)n(C)c(=O)n2C
inactive

----------
# System: WPMY1-ACTB-RAB5A
# protocol_description: phenotypically active (imaging signature differs from DMSO and reproducible) at any of 0.3-9 uM (binary (1 = active, 0 = inactive)); higher = active
# recorded_conditions: treatment time: 24 h
Counter-ions that a name gives are not always drawn.
Returns: one label drawn from y (active), n (inactive)

>  <compound>
O=C(O)COc1ccc(Br)cc1/C=C1\SC(=S)N(Cc2cccnc2)C1=O

>  <system_name>
WPMY1-ACTB-RAB5A

>  <category>
n

$$$$
>  <compound>
O=c1c(-c2ccc(O)cc2)coc2cc(O[C@@H]3O[C@H](CO)[C@@H](O)[C@H](O)[C@H]3O)cc(O)c12

>  <system_name>
WPMY1-ACTB-RAB5A

>  <category>
y

$$$$
>  <compound>
CC(C)(N)c1cc(C(=O)N[C@@H]2CCc3ccc(OC4=C5CCC(=O)N=C5NC=C4)cc3C2)cc(C(F)(F)F)c1 [ML 786 dihydrochloride]

>  <system_name>
WPMY1-ACTB-RAB5A

>  <category>
y

$$$$
>  <compound>
CS(=O)(=O)c1cccc(CNc2nc(Nc3ccc4c(c3)CCC(=O)N4)ncc2C(F)(F)F)c1

>  <system_name>
WPMY1-ACTB-RAB5A

>  <category>
y

$$$$
>  <compound>
N[C@@H](CSC(c1ccccc1)(c1ccccc1)c1ccccc1)C(=O)O

>  <system_name>
WPMY1-ACTB-RAB5A

>  <category>
n

$$$$
>  <compound>
COc1ccccc1OCC(O)COC(N)=O (centres undefined)

>  <system_name>
WPMY1-ACTB-RAB5A

>  <category>
n

$$$$

Fill in: this test's call for CCCCCC1CC1CC1CC1CCCCCCCC(=O)O (centres undefined) is ___
n

Another compound to look at: COc1ccc([C@@H]2CC(=O)c3c(O)cc(O[C@@H]4O[C@H](CO[C@@H]5O[C@@H](C)[C@H](O)[C@@H](O)[C@H]5O)[C@@H](O)[C@H](O)[C@H]4O)cc3O2)cc1O
n

Another compound to look at: O=C(CCCCSc1nc(-c2ccc(-c3ccccc3)cc2)cc(=O)[nH]1)NO
y

Another compound to look at: CC(C)NCCCC1(C(N)=O)c2ccccc2-c2ccccc21 [indecainide]
n

Another compound to look at: COc1cc(C=O)c([N+](=O)[O-])cc1OC
n

Another compound to look at: NCCCC[C@H](N[C@@H](CCc1ccccc1)C(=O)O)C(=O)N1CCC[C@H]1C(=O)O
n

Another compound to look at: Cn1cc(C2=C(c3ccc(Cl)cc3Cl)C(=O)NC2=O)c2ccccc21
n

Another compound to look at: c1ccc(-c2cnn3cc(-c4ccc(OCCN5CCOCC5)cc4)cnc23)cc1
n

Another compound to look at: O=c1[nH]cnc2c1ncn2[C@H]1CC[C@@H](CO)O1
n

Another compound to look at: COc1cc(O)cc(O)c1C(=O)/C=C/c1ccccc1
y

Another compound to look at: NC(=O)N1c2ccccc2C=Cc2ccccc21 [carbamazepine]
n

Another compound to look at: Cc1ccc(S(=O)(=O)n2c(N)nc3ccccc32)cc1
n

Another compound to look at: NCCNS(=O)(=O)c1cccc2cnccc12 [H-9 dihydrochloride]
y

----------
# Tested on: HepG2-TUBA1B-RELA
# protocol_description: phenotypically active (imaging signature differs from DMSO and reproducible) at any of 0.3-9 uM (binary (1 = active, 0 = inactive)); higher = active
# recorded_conditions: treatment time: 24 h
Counter-ions that a name gives are not always drawn.
Returns: one label drawn from 1 (active), 0 (inactive)

>  <compound>
O=c1cc(-c2ccc(O)cc2)oc2c(C3O[C@H](CO)[C@@H](O)[C@H](O)[C@H]3O)c(O)cc(O)c12 (some centres undefined) [Vitexin]

>  <category>
0

$$$$
>  <compound>
CCOc1ccccc1OCCN[C@H](C)Cc1ccc(OC)c(S(N)(=O)=O)c1 [tamsulosin]

>  <category>
0

$$$$
>  <compound>
COc1cc(C(=O)NC2CCN(C)CC2)c(F)cc1Nc1ncc2c(n1)N(C1CCCC1)CC(F)(F)C(=O)N2C [TAK 960 hydrochloride]

>  <category>
1

$$$$

Now examine the next entry.
Fill in: this test's call for Cc1cnc(NC(=O)Nc2cc(Br)c(C)cc2OC[C@@H]2CNCCO2)cn1 is ___
1

----------
What lowest phenotypically active concentration was measured for each of the following?
# System: A549-ACTB-RAB5A
# protocol_description: lowest phenotypically active concentration; higher = less potent
# recorded_conditions: treatment time: 24 h
Counter-ions that a name gives are not always drawn.

>  <compound>
Nc1nc(Cl)nc2c1ncn2[C@@H]1O[C@H](CO)[C@@H](O)[C@@H]1F

>  <recorded_value>
1 µM

$$$$

List reported lowest phenotypically active concentration for each of these compounds:
1. Cc1cc(/N=N/c2ccc(S(=O)(=O)Nc3ccccn3)cc2)c(N)cc1O
2. CC(C)n1c(/C=C/[C@@H](O)C[C@@H](O)CC(=O)O)c(-c2ccc(F)cc2)c2ccccc21.CC(C)n1c(/C=C/[C@H](O)C[C@H](O)CC(=O)O)c(-c2ccc(F)cc2)c2ccccc21 [Fluvastatin sodium]
3. Cc1ccc(NC(=O)c2cccc(C(C)(C)C#N)c2)cc1Nc1ccc2ncn(C)c(=O)c2c1
4. O=C([C@@H](Cc1cccc(C(F)(F)F)c1)NS(=O)(=O)c1cc(F)c2c(c1)CCNC2)N1CCCC1 [(R)-PFI 2 hydrochloride]

["9 µM", "≤ 0.3 µM", "1 µM", "9 µM"]

List reported lowest phenotypically active concentration for each of these compounds:
1. C=C1CN(Cc2ccc(C(=O)Nc3ccccc3N)cc2)C(=O)c2ccccc21
2. Nc1ncn([C@@H]2O[C@H](CO)[C@@H](O)[C@H]2O)c(=O)n1

≤ 0.3 µM
1 µM
